// data source = paper PMC11396129

Record form. Attribute: GI%. Fill in for each entry.
# Tested on: NCI-H522
# PROTOCOL: NCI 60 panel growth inhibition (SRB), non-small cell lung cancer
# Format: cell-based, human
# STATED_CONDITIONS: NCI-H522, 10 μM
Quick reminder: number only, in %, skip the unit.

query: Recall and state the measured GI% for CNC(=O)c1nn(C)c2c1C(C)(C)Cc1cnc(Nc3ccc(N4CCN(C)CC4)cc3)nc1-2 [Milciclib, reference compound] .
result: 129.40

query: Recall and state the measured GI% for COc1ccc(-c2nc3ccccc3s2)cc1OCC(=O)NN=C1C(=O)Nc2ccc(Cl)cc21 .
result: 21.77

query: Recall and state the measured GI% for COc1cccc(-c2nc3ccccc3s2)c1OCC(=O)NN=C1C(=O)Nc2ccccc21 .
result: 33.32

====

# Test system: TK-10
# PROTOCOL: NCI 60 panel growth inhibition (SRB), renal cancer
# Assay type: cell-based, human
# STATED_CONDITIONS: TK-10, 10 μM
OBSERVATION_TYPE: GI%

{"MOL_SMILES": "COc1cccc(-c2nc3ccccc3s2)c1OCC(=O)NN=C1C(=O)Nc2ccc(Br)cc21", "OBSERVATION_TYPE": "GI%", "REPORTED": "– (GI% < 5%)"}
{"MOL_SMILES": "COc1ccc(-c2nc3ccccc3s2)cc1OCC(=O)NN=C1C(=O)Nc2ccc(C)cc21", "OBSERVATION_TYPE": "GI%", "REPORTED": "– (GI% < 5%)"}
{"MOL_SMILES": "COc1ccc2c(c1)C(=NNC(=O)COc1c(OC)cccc1-c1nc3ccccc3s1)C(=O)N2", "OBSERVATION_TYPE": "GI%", "REPORTED": "– (GI% < 5%)"}

====

# Test system: IGROV1
# PROTOCOL: NCI 60 panel growth inhibition (SRB), ovarian cancer
# Assay type: cell-based, human
# STATED_CONDITIONS: IGROV1, 10 μM

{"COMPOUND": "COc1ccc(-c2nc3ccccc3s2)cc1OCC(=O)NN=C1C(=O)Nc2ccc(C)cc21 [Compound 9n]", "GI%": "– (GI% < 5%)"}
{"COMPOUND": "COc1ccc(-c2nc3ccccc3s2)cc1OCC(=O)NN=C1C(=O)Nc2ccccc21 [Compound 9m]", "GI%": "– (GI% < 5%)"}
{"COMPOUND": "COc1ccc2c(c1)C(=NNC(=O)COc1ccccc1-c1nc3ccccc3s1)C(=O)N2 [Compound 9c]", "GI%": "– (GI% < 5%)"}

====

# Tested on: SK-MEL-2
# PROTOCOL: NCI 60 panel growth inhibition (SRB), melanoma
# Type: cell-based, human
# STATED_CONDITIONS: SK-MEL-2, 10 μM
OBSERVATION_TYPE: GI%

{"COMPOUND": "O=C(COc1ccccc1-c1nc2ccccc2s1)NN=C1C(=O)Nc2ccc(Cl)cc21 [Compound 9e]", "OBSERVATION_TYPE": "GI%", "REPORTED": "– (GI% < 5%)"}
{"COMPOUND": "COc1ccc(-c2nc3ccccc3s2)cc1OCC(=O)NN=C1C(=O)Nc2ccc(C)cc21 [Compound 9n]", "OBSERVATION_TYPE": "GI%", "REPORTED": "– (GI% < 5%)"}
{"COMPOUND": "COc1ccc(-c2nc3ccccc3s2)cc1OCC(=O)NN=C1C(=O)Nc2ccccc21 [Compound 9m]", "OBSERVATION_TYPE": "GI%", "REPORTED": "– (GI% < 5%)"}

====

# Test system: SNB-19
# PROTOCOL: NCI 60 panel growth inhibition (SRB), CNS cancer
# Format: cell-based, human
# STATED_CONDITIONS: SNB-19, 10 μM
# Procedure: Screening of cytotoxic activity against a panel of sixty human tumor cell lines The selected compounds by NCI were evaluated for their anticancer activity in a two- stage process. […] Using the seven absorbance measurements [time zero, (Tz), control growth, (C), and test growth in the presence of drug at the five concentration levels (Ti)], the percentage growth is calculated at each of the drug concentrations levels. […] Three dose response parameters are calculated for each experimental agent. […]

{"COMPOUND": "COc1ccc(-c2nc3ccccc3s2)cc1OCC(=O)NN=C1C(=O)Nc2ccccc21 [Compound 9m]", "GI%": "– (GI% < 5%)"}
{"COMPOUND": "COc1ccc(-c2nc3ccccc3s2)cc1OCC(=O)NN=C1C(=O)Nc2ccc(C)cc21 [Compound 9n]", "GI%": "– (GI% < 5%)"}
{"COMPOUND": "COc1cccc(-c2nc3ccccc3s2)c1OCC(=O)NN=C1C(=O)Nc2ccc(Cl)cc21 [Compound 9k]", "GI%": "– (GI% < 5%)"}

====

# System: KM12
# PROTOCOL: NCI 60 panel growth inhibition (SRB), colon cancer
# Assay type: cell-based, human
# STATED_CONDITIONS: KM12, 10 μM
OBSERVATION_TYPE: GI%

{"MOL_SMILES": "COc1ccc(-c2nc3ccccc3s2)cc1OCC(=O)NN=C1C(=O)Nc2ccc([N+](=O)[O-])cc21", "OBSERVATION_TYPE": "GI%", "REPORTED": "– (GI% < 5%)"}
{"MOL_SMILES": "COc1ccc(-c2nc3ccccc3s2)cc1OCC(=O)NN=C1C(=O)Nc2ccc(C)cc21", "OBSERVATION_TYPE": "GI%", "REPORTED": "– (GI% < 5%)"}
{"MOL_SMILES": "COc1ccc(-c2nc3ccccc3s2)cc1OCC(=O)NN=C1C(=O)Nc2ccccc21", "OBSERVATION_TYPE": "GI%", "REPORTED": "– (GI% < 5%)"}

====

# Test system: SN12C
# PROTOCOL: NCI 60 panel growth inhibition (SRB), renal cancer
# Format: cell-based, human
# STATED_CONDITIONS: 10 μM
Record form. Attribute: GI%. Fill in for each entry.
Quick reminder: number only, in %, skip the unit.

query: Recall and state the measured GI% for COc1cccc(-c2nc3ccccc3s2)c1OCC(=O)NN=C1C(=O)Nc2ccc(Br)cc21 [Compound 9l] .
result: 16.14

query: Recall and state the measured GI% for COc1cccc(-c2nc3ccccc3s2)c1OCC(=O)NN=C1C(=O)Nc2ccc(C)cc21 [Compound 9h] .
result: 9.88

query: Recall and state the measured GI% for COc1ccc2c(c1)C(=NNC(=O)COc1cc(-c3nc4ccccc4s3)ccc1OC)C(=O)N2 [Compound 9o] .
result: 24.01

====

# Test system: M14
# PROTOCOL: NCI 60 panel growth inhibition (SRB), melanoma
# Format: cell-based, human
# STATED_CONDITIONS: M14, 10 μM
Record form. Attribute: GI%. Fill in for each entry.
Quick reminder: number only, in %, skip the unit.

query: Recall and state the measured GI% for COc1ccc2c(c1)C(=NNC(=O)COc1c(OC)cccc1-c1nc3ccccc3s1)C(=O)N2 .
result: 7.92

query: Recall and state the measured GI% for O=C(COc1ccccc1-c1nc2ccccc2s1)NN=C1C(=O)Nc2ccc(Br)cc21 .
result: 8.00

====

# Test system: SN12C
# PROTOCOL: NCI 60 panel growth inhibition (SRB), renal cancer
# Assay type: cell-based, human
# STATED_CONDITIONS: 10 μM
Record form. Attribute: GI%. Fill in for each entry.
Quick reminder: number only, in %, skip the unit.

query: Recall and state the measured GI% for COc1ccc(-c2nc3ccccc3s2)cc1OCC(=O)NN=C1C(=O)Nc2ccccc21 [Compound 9m] .
result: 7.15

query: Recall and state the measured GI% for COc1ccc(-c2nc3ccccc3s2)cc1OCC(=O)NN=C1C(=O)Nc2ccc(Br)cc21 [Compound 9r] .
result: 20.61

query: Recall and state the measured GI% for Cc1ccc2c(c1)C(=NNC(=O)COc1ccccc1-c1nc3ccccc3s1)C(=O)N2 [Compound 9b] .
result: 61.93

====

# System: OVCAR-4
# PROTOCOL: NCI 60 panel growth inhibition (SRB), ovarian cancer
# Assay type: cell-based, human
# STATED_CONDITIONS: OVCAR-4, 10 μM
# Description: Screening of cytotoxic activity against a panel of sixty human tumor cell lines The selected compounds by NCI were evaluated for their anticancer activity in a two- stage process. […] Using the seven absorbance measurements [time zero, (Tz), control growth, (C), and test growth in the presence of drug at the five concentration levels (Ti)], the percentage growth is calculated at each of the drug concentrations levels. […] Three dose response parameters are calculated for each experimental agent. […]
OBSERVATION_TYPE: GI% (%)
Quick reminder: number only, in %, skip the unit.

query: Give OVCAR-4 GI% for the following molecule: COc1cccc(-c2nc3ccccc3s2)c1OCC(=O)NN=C1C(=O)Nc2ccc(C)cc21
result: 20.46

query: Give OVCAR-4 GI% for the following molecule: COc1ccc2c(c1)C(=NNC(=O)COc1c(OC)cccc1-c1nc3ccccc3s1)C(=O)N2
result: 20.14
